Target: T1, human amylin-3(a) receptor (human, UniProt P30988 25-474; O60896 24-148)
T1 sequence (looked up) 1: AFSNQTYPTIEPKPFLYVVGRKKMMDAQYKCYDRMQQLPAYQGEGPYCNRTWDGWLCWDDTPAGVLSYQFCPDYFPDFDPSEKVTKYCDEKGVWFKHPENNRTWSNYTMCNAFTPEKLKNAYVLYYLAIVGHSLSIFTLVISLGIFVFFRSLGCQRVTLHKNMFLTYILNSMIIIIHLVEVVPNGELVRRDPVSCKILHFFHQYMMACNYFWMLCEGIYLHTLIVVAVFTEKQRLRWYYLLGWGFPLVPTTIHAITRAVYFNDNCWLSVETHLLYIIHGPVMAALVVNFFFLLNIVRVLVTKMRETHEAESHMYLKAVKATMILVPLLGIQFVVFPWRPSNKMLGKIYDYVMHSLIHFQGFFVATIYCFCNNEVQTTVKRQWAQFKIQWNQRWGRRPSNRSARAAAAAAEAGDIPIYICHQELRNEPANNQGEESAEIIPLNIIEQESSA
T1 sequence (looked up) 2: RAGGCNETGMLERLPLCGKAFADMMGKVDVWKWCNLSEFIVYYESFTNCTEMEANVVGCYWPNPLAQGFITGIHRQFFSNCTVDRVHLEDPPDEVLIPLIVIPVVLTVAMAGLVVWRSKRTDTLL
Assay: cell-based or functional assay
Numbered stars: 1 amine (or outer) side, 2 acyl side, 3 side chain; on linkers, the order of the positions; unused ones are H or OH. Square brackets hold non-standard residues; d marks the D form. Side chains are listed from the residue outwards. * marks the point of attachment. C18 diacid = O=C(O)CCCCCCCCCCCCCCCCC(=O)*; γGlu = O=C(O)[C@H](CCC(=O)[*:2])N[*:1]; Chem. 28 = not defined here; AEEA = NCCOCCOCC(=O)O; Aib = CC(C)(N)C(=O)O
endpoint label: hAMYR3 Potency, 1% HSA, EC50 [pM] (pM)
Number only, in pM; omit the unit.

hAMYR3 Potency, 1% HSA, EC50 [pM] reported for this binder Compound 79 (peptide) peptide: Y[Aib]EGTFTSDYSILLEEQAAREFIEWLLAGGPSSGEASHLSTAQTQRLSAK([AEEA-AEEA-γGlu-C18 diacid])LHRLATLPRTETGSGSP-NH2 : 53.4

The recorded hAMYR3 Potency, 1% HSA, EC50 [pM] for Compound 103 (reading uncertain) peptide: H[Aib]HGTFTSDYSILLEEQAAREFIEWLLAGGPSSGAGQAPGQAPGASHLSTAQTARLSAELHK(Chem. 28)LATLPRTETGSGSP-NH2 is 73.6

Form: binder = Compound 98 (peptide) peptide: Y[Aib]EGTFTSDYSILLEEQAAREFIEWLLAGGPSSGAGQAPGQAPLASHLSTAQTARLSAELHK([AEEA-AEEA-γGlu-C18 diacid])LATLPRTETGSGSP-NH2 ; hAMYR3 Potency, 1% HSA, EC50 [pM] = 108
